FYI, the data here is from the supplement of paper PMC11208160.

- METHOD SUMMARY: recombinant UMI read abundance after kanamycin selection (control-corrected) (log10(CPM+1)); higher = more efficient recombination; extreme values may be limits of the assay; sequences stand for … in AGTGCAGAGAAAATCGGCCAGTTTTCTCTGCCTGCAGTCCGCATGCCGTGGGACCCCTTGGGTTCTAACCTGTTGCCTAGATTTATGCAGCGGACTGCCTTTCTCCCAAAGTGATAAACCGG…AGGTTGGTTTCACT; site = the 11-nt donor
Decision: recombinant UMI read abundance (log10) >= 0.2 yields true (1), all other cases yield false (0).

SEQ | ANSWER LABEL
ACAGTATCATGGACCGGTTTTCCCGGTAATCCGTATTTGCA (site CCATTATCTTG) | true (1)
TTACACTCATGGACCGGTTTTCCCGGTAATCCGTATTTGAT (site TTACACTCTAT) | true (1)
TCCACTGCATGGACCGGTTTTCCCGGTAATCCGTATTTGCG (site TCCACGGCTCG) | false (0)
ATCAAGACATGGACCGGTTTTCCCGGTAATCCGTATTTGCA (site AGGAAGACTTG) | true (1)
TATACACCATGGACCGGTTTTCCCGGTAATCCGTATTTGAC (site TCTACACCTGT) | false (0)
TGGACTTCATGGACCGGTTTTCCCGGTAATCCGTATTTGTG (site TGGACTTCTCA) | true (1)
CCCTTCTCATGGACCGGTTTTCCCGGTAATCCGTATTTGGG (site TCCTTCTCTCC) | false (0)
GGAGTGCCATGGACCGGTTTTCCCGGTAATCCGTATTTGGT (site GGAGTGACTAC) | false (0)
GACGAAGCATGGACCGGTTTTCCCGGTAATCCGTATTTGCT (site GACGAAGCTAG) | true (1)
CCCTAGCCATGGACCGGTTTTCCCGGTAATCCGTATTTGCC (site CCCTTGCCTGG) | false (0)

---

- METHOD SUMMARY: recombinant barcode read abundance after kanamycin selection (control-corrected) (log10(CPM+1)); higher = more efficient recombination; sequences stand for … in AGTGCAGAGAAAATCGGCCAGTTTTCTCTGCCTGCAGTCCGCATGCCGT…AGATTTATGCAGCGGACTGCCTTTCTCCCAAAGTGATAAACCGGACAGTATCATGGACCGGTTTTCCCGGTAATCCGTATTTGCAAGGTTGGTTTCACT; site = the 11-nt target
OUTCOME MEASURE: recombinant barcode read abundance (log10)

SEQ | RECORDED RESULT
AGAAACACTTGGGTTCTAACCTGTTGCCT (site AGGAACACTAG) | 0.0546
GACAGGCCTTGGGTTCTAACCTGTTGCGT (site CTGCTAGCTCT) | 0.278
GAGGTATCTTGGGTTCTAACCTGTTGCCA (site GAGGTATCTTG) | 1.12
GATAGTCCTTGGGTTCTAACCTGTTGCCT (site GATAGTGCTAG) | 0.161
ATGCTATCTTGGGTTCTAACCTGTTGCAG (site CACGGTCCTTG) | 0.276
TGAATTACTTGGGTTCTAACCTGTTGCCT (site TGAAATACTAG) | 0.116
GCTCAACCTTGGGTTCTAACCTGTTGCCT (site GGTCAACCTAG) | 0.176
GACACCTCTTGGGTTCTAACCTGTTGCCG (site GACACCTCTCG) | 1.12
TCTAAACCTTGGGTTCTAACCTGTTGCCT (site TCTAAACCTAG) | 0.205
AGCTCACCTTGGGTTCTAACCTGTTGCCT (site AGCTCACCTAG) | 0.216
